Quick list: Percent Effect per entry.
Tested on: Wolbachia pipientis
Test: Anti-Wolbachia Cell-Based Screen
Type: functional
Set-up: scale not given: in the data most compounds retested in dose-response had high values
Conditions: 5 µM
In all, about 48,000 compounds went through this assay and about 13,000 (27%) showed an effect of 50% or more. The list shows a part of the results.
Give your result in % as a bare value.

Example compounds with recorded Percent Effect:
# COMPOUND, TESTED_ON, RESULT_UNITS, Percent Effect
measured = [
    ("O=C(COc1ccc(F)cc1)N1CCO[C@H]2[C@@H](OCC3CC3)CC[C@@H]21", "Wolbachia pipientis", "%", 107),
    ("Cc1cc(C)nc(Nc2nccnc2C2CCCN(C(C)C)C2)n1 (centres undefined)", "Wolbachia pipientis", "%", 76.04),
    ("O=C(O)c1nnn(Cc2cccc(C(F)(F)F)c2)c1-c1ccncc1", "Wolbachia pipientis", "%", -2.735),
    ("O=C(O)c1nnn(Cc2cccc(C(F)(F)F)c2)c1-c1ccccn1", "Wolbachia pipientis", "%", 11.55),
    ("CCn1cnnc1C1CCN(C(=O)c2cc(C)n(CC)c2C)CC1", "Wolbachia pipientis", "%", 80.75),
    ("CCC(CC)C(=O)NS(=O)(=O)CCc1ccccc1", "Wolbachia pipientis", "%", -5.917),
]

The recorded Percent Effect for CCc1ccc(C(=O)N2CCC(c3nncn3CC)CC2)o1 is 130.6

The recorded Percent Effect for CCn1cnnc1C1CCN(C(=O)c2c(C)oc(C)c2C)CC1 is 107.2

The recorded Percent Effect for Cc1cc(C)nc(Nc2nccnc2C2CCCN(CCO)C2)n1 (centres undefined) is 115.9

The recorded Percent Effect for CCO[C@@H]1CC[C@H]2[C@H]1OCCN2C(=O)c1ccc(C)o1 is 0.08907

The recorded Percent Effect for O=C(O)Cc1cnc(-c2c(Cl)cccc2Cl)s1 is 122.5

The recorded Percent Effect for CCC(=O)N1CCCC1c1nccnc1Nc1nc(C)cc(C)n1 (centres undefined) is 4.912

The recorded Percent Effect for O=C(CCNc1ncccn1)NCc1ccc(Br)s1 is 9.501

The recorded Percent Effect for CCn1ncc2c1NC(=O)C(C#N)C21CCCC1 (centres undefined) is 21.97

The recorded Percent Effect for CN(C)C(=O)N1CCN(Cc2cnc(-c3ccsc3)s2)CC1 is -2.871

The recorded Percent Effect for NC(=O)C1CCN(C(=O)Cc2ccc(Cl)c(Cl)c2)CC1 is -1.39

The recorded Percent Effect for O=C(NC1CC1)c1cc(NC(=O)N2CCOCC2)ccc1Cl is -10.77

====

Quick list: Percent Effect per entry.
System: Wolbachia pipientis
Assay: Anti-Wolbachia Cell-Based Screen
Type: functional
Parameters: scale not given: in the data most compounds retested in dose-response had high values
Settings: 5 µM
Among all 48,000 compounds or so, about 13,000 (27%) showed an effect of 50% or more. The list shows a part of the results.
Give your result in % as a bare value.

Example molecules with recorded Percent Effect:
# MOLECULE, TESTED_ON, MEASURED_NUMBER
records = [
    ("O=C(COC1CCCC1)N1CCC(C(O)c2ccc(F)cc2)CC1 (stereo unspecified)", "Wolbachia pipientis", 6.854),
    ("CCOCC1CN(C(=O)Cc2ccccn2)Cc2c1cnn2CC (stereo unspecified)", "Wolbachia pipientis", -48.51),
    ("CCn1ncc(CNC(=O)c2cn(CCC3CCCCN3)nn2)c1C (stereo unspecified)", "Wolbachia pipientis", 3.216),
    ("CCc1nccn1C1CCCN(C(=O)c2ccnc(N(C)C)c2)C1 (stereo unspecified)", "Wolbachia pipientis", 1.194),
    ("Cc1ccc(C(=O)NCCNCC2CNc3ccnn3C2)cc1 (stereo unspecified)", "Wolbachia pipientis", -8.644),
]

# input for lookup
The recorded Percent Effect for CCc1nccn1C1CCCN(C(=O)c2ccc3c(c2)OCO3)C1 (stereo unspecified) is 0.5679

====

Tested on: Wolbachia pipientis
Assay: Anti-Wolbachia Cell-Based Screen
Format: functional
Design: scale not given: in the data most compounds retested in dose-response had high values
Settings: 5 µM
In all, about 48,000 compounds went through this assay and about 13,000 (27%) showed an effect of 50% or more. The list shows a part of the results.
OUTCOME_MEASURE: Percent Effect
Field: value (include unit after the number)

Example compounds with recorded Percent Effect:
# COMPOUND, TESTED_ON, Percent Effect
measured = [
    ("c1ccn2c(SCC3CN=C(N4CCOCC4)S3)ncc2c1 (stereo unspecified)", "Wolbachia pipientis", "6.715%"),
    ("Cc1ccc(-c2nnc(CN3CC[C@H](CO)[C@@H](O)C3)o2)n1C", "Wolbachia pipientis", "-9.968%"),
    ("CO[C@H]1CNC[C@@H]1NC(=O)c1cc(C)nc2c(C)c(C)ccc12", "Wolbachia pipientis", "-8.867%"),
    ("CCCn1cc(-c2cc(C(=O)N(C)C)c3ccc(OC)cc3n2)cn1", "Wolbachia pipientis", "91.31%"),
    ("CCN(CC1CCOC1)C(=O)CSCC(=O)Nc1ccc(C)cc1 (stereo unspecified)", "Wolbachia pipientis", "4.187%"),
    ("CC(C)(C)n1ncc2c(=O)[nH]c(NC3CC=CC3)nc21", "Wolbachia pipientis", "3.92%"),
    ("Cc1cc(CN2CCCC2)cc(Oc2ccc3c(c2)CC(CN)O3)c1 (stereo unspecified)", "Wolbachia pipientis", "4.792%"),
    ("CCS(=O)(=O)N1CCN(C(=O)C(C)C)CC2(CC(=O)N(C)C2)C1 (stereo unspecified)", "Wolbachia pipientis", "-2.529%"),
]

The recorded Percent Effect for COC(=O)c1sccc1S(=O)(=O)NCC1(O)CCOc2ccccc21 (stereo unspecified) is -4.679%

The recorded Percent Effect for COc1ccc(CNC(=O)CCn2cc(C)cn2)cc1C is -6.428%

The recorded Percent Effect for CN(C)C(=O)c1cc(-c2cnc(N)nc2)nc2cc(F)ccc12 is 2.349%

====

Test system: Wolbachia pipientis
Test: Anti-Wolbachia Cell-Based Screen
Assay type: functional
Design: scale not given: in the data most compounds retested in dose-response had high values
Conditions: 5 µM
The whole screen tested about 48,000 compounds, of which about 13,000 (27%) showed an effect of 50% or more. Some of the results follow.
Labelling field: enter y if recorded Percent Effect is less than 20%. Enter n if it equals or exceeds that cut-off.

Req: Dear colleague, could you confirm whether Percent Effect of COc1ccc(CN2CCn3cc(Cn4cccn4)nc3C2)cc1.O=C(O)C(F)(F)F falls below 20%? Thanks.
Resp: y

Req: Dear colleague, could you confirm whether Percent Effect of N#Cc1cccc(NC(=O)CCn2nc(-c3cccs3)oc2=O)c1 falls below 20%? Thanks.
Resp: n

Req: Dear colleague, could you confirm whether Percent Effect of Cc1ccc(CN2CCn3cc(CN4CCN(C)CC4)nc3C2)cc1.O=C(O)C(F)(F)F.O=C(O)C(F)(F)F.O=C(O)C(F)(F)F falls below 20%? Thanks.
Resp: n

Req: Dear colleague, could you confirm whether Percent Effect of COCCn1ccc(NC(=O)Nc2cccc(C#N)c2)n1 falls below 20%? Thanks.
Resp: y

Req: Dear colleague, could you confirm whether Percent Effect of CC(=O)c1cccc(NC(=O)Cn2nc(-c3cccs3)oc2=O)c1 falls below 20%? Thanks.
Resp: n

====

Tested on: Wolbachia pipientis
Experiment: Anti-Wolbachia Cell-Based Screen
Assay type: functional
Set-up: scale not given: in the data most compounds retested in dose-response had high values
Conditions: 5 µM
The campaign covered roughly 48,000 compounds. About 13,000 (27%) showed an effect of 50% or more. The list shows a part of the results.
Quick list: Percent Effect per entry.
Field: value (include unit after the number)

Example molecules with recorded Percent Effect:
# MOLECULE, OUTCOME_MEASURE, RESULT
rows = [
    ("Cc1ccc(CN2CCc3ncc(CNC(=O)C4CCC4)n3CC2)o1.O=C(O)C(F)(F)F", "Percent Effect", "89.47%"),
    ("CNc1nccnc1C1CN(Cc2ccc3[nH]ccc3c2)CCO1 (stereo not given)", "Percent Effect", "136.6%"),
    ("O=C(COc1cccnc1)N1CCCC(n2cccn2)C1 (stereo not given)", "Percent Effect", "-8.892%"),
    ("Cc1csc2c(N3CCC(NCCc4ccnn4C)CC3)ncnc12", "Percent Effect", "1.51%"),
    ("CNc1nccnc1C1CN(Cc2ccc(OCC(=O)O)cc2)CCO1 (stereo not given)", "Percent Effect", "142.7%"),
]

The recorded Percent Effect for CCN(C(=O)c1ccc2nnc(C3CCN(CCOC)C3)n2c1)C(C)C.O=C(O)C(F)(F)F (stereo not given) is 2.172%

====

Test system: Wolbachia pipientis
Assay: Anti-Wolbachia Cell-Based Screen
Assay type: functional
Parameters: scale not given: in the data most compounds retested in dose-response had high values
Settings: 5 µM
About 13,000 (27%) of roughly 48,000 compounds showed an effect of 50% or more. This is one part of the list.
Quick list: Percent Effect per entry.
Give your result in % as a bare value.

Value (Percent Effect, Wolbachia pipientis) for record CC(=O)N1CCN([C@@H]2CN(C(=O)c3ccccc3C)C[C@H]2O)CC1 = 166

Value (Percent Effect, Wolbachia pipientis) for record CS(=O)(=O)c1ccc(NC(=O)N2C[C@H](O)[C@@H](N3CCOCC3)C2)cc1 = -0.5097

Value (Percent Effect, Wolbachia pipientis) for record CCCc1cc(C(=O)N2C[C@H](O)[C@@H](N3CCCC3)C2)ccn1 = -25.18

Value (Percent Effect, Wolbachia pipientis) for record Cc1ccccc1C(=O)N1CC2(COC(C)(C)OC2)C1 = -1.566

Value (Percent Effect, Wolbachia pipientis) for record Cc1ccccc1C(=O)N1C[C@@H](O)[C@H](N2CCOCC2)C1 = 137.5

Value (Percent Effect, Wolbachia pipientis) for record Cn1cccc1C(=O)N1C[C@@H]2CCCO[C@@H]2[C@H](N2CCOCC2)C1 = 10.78

Value (Percent Effect, Wolbachia pipientis) for record O=C(O)C(F)(F)F.O=C(c1ccccc1)N1C[C@@H]2CCCO[C@@H]2[C@H](N2CCCC2)C1 = 0.7695

Value (Percent Effect, Wolbachia pipientis) for record Cc1cccc(C(=O)N2CCN(c3ccc(-n4cccc4)nn3)CC2)c1 = 0.6328

Value (Percent Effect, Wolbachia pipientis) for record CC(=O)N1CCN([C@@H]2CN(C(=O)c3ccccc3)C[C@H]2O)CC1 = 163.7

Value (Percent Effect, Wolbachia pipientis) for record Cc1ccccc1C(=O)N1C[C@@H]2C[C@@H](C)O[C@@H]2C1 = -6.005
